Parameter: pIC50. Scope: all listed entries.
Biological target: PI3K beta (Homo sapiens)
Construct: for the full-length p110-b subunit are generated and fused by overlapping PCR; His tag (C); made in house; host or cells: baculovirus BV949; Tn5 (Trichoplusia ni) or TiniPro insect cells
Sequence (P42338 with tags, fused parts or gaps limits assumed): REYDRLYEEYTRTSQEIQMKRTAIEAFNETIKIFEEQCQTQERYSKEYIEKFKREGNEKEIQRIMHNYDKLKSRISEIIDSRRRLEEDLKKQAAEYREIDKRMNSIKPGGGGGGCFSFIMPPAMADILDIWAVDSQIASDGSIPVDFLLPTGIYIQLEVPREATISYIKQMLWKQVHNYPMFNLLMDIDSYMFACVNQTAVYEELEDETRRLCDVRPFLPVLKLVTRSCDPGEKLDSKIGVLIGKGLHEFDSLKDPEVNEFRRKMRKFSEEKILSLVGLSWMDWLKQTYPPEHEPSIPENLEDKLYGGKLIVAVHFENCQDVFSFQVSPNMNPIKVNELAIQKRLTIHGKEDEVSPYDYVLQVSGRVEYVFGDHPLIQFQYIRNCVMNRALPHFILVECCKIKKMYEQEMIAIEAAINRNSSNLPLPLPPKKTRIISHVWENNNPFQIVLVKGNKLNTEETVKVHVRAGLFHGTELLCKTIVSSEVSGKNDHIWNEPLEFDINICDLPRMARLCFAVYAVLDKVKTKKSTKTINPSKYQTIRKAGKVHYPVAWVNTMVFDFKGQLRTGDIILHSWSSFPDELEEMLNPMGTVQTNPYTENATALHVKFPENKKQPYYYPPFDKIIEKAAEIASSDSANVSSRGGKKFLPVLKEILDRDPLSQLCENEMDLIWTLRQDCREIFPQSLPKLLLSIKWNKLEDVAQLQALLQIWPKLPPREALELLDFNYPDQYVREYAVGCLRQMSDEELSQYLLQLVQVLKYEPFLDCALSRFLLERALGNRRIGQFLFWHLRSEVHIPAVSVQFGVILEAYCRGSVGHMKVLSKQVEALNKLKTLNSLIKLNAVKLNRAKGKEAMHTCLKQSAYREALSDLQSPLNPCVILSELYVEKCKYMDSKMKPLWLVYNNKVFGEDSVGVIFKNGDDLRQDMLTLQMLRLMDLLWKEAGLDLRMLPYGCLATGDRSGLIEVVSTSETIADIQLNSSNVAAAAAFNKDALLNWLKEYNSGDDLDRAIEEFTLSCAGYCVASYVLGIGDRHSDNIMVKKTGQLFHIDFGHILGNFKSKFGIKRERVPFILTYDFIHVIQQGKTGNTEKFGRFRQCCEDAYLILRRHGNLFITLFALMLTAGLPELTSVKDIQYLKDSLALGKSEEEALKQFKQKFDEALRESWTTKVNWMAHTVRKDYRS
Assay: PI3K beta kinase assay (Kinase-Glo luminescence)
Format: biochemical
Conditions: read-out: EPK_PI3Kbeta/IC50
Keep in mind that pIC50 stands for -log10 of concentration in molar terms.

# example entries with known answers
• COC1CCN(c2ccc(-n3c(=O)n(C)c4cnc5ccc(-c6cncc(C(C)(C)O)c6)cc5c43)c(C)n2)C1 (stereo not shown) = 7.32
• CCNc1cc(-c2ccc3ncc4c(c3c2)n(-c2ccc(N3CC(O)C3)nc2C)c(=O)n4C)cnc1CO = 6.17
• CCOc1ccc(-c2ccc3ncc4c(c3c2)n(-c2cncc(C)c2)c(=O)n4C)cn1 = 5.40
• COc1ccc(-n2c(=O)n(C)c3cnc4ccc(-c5cncc(N6CCC6)c5)cc4c32)c(OC)n1 = 6.14
• Cc1nc(C(C)(C)O)ccc1-n1c(=O)n(C)c2cnc3ccc(-c4cncc(C5(C#N)CCC5)c4)cc3c21 = 7.52
• CCOc1ccc(-c2ccc3ncc4c(c3c2)n(-c2ccc(C(C)(C)O)nc2C)c(=O)n4C)cn1 = 6.47

Notebook entry, PI3K beta (Homo sapiens) assay: pIC50 of `Cc1nc(N2CC[C@H](O)C2)ccc1-n1c(=O)n(C)c2cnc3ccc(-c4cncc(OC(C)C)c4)cc3c21` = ?
6.67
